test system: Saccharomyces cerevisiae; assay: protein stability index of tFT-peptide fusion (C-terminal peptide) (PSI (0-1 scale)); higher = more stable (slower turnover); conditions: genetic background: wild type; temperature: 30 C;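 note: PSI is a weighted mean of sequencing reads over stability bins, variants kept only with over 10 reads, mCherry proximal and sfGFP distal, peptide attached via GGGS linker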
MEASURED_PARAMETER: protein stability index
The answer should be a number; do not append a unit.

Sample answers from the record:
> print(dat)
    record.sequence  measurement
 1     KNRKSYTINSRK        0.656
 2     LYSGADPLPWGR        0.716
 3     SLPPSFPPPFLF        0.735
 4     TLDWKFGRGGIG        0.375
 5     FFFFSVHLSFLD         0.31
 6     VFFMFVFFPFPG        0.471
 7     INSEKKKDRNKL        0.779
 8     GIPEFGYLYLVT        0.613
 9     LFHPPSFSLRLF        0.528
10     TRMPTRRNEQIY        0.683

Kindly consider the entry below.
Give its protein stability index value. Item: `LLDIYFILLVWF`
0.346
